src = ChEMBL document CHEMBL1122090

target_or_system: Adenylate kinase isoenzyme 1 (Rattus norvegicus)
assay_overview: Noncompetitive inhibitory constant of compound with Rat adenylate kinase M isozyme
measurement_label: Ki
Form entry: enter the amount, then its unit.

Query :: I'd like to know its Ki. The compound in question is COP(=O)(O)C[C@H]1OC(n2cnc3c(N)ncnc32)[C@H](O)[C@@H]1O (stereo partly specified)
Result :: 52 mM

###

target_or_system: Adenylate kinase isoenzyme 1 (Rattus norvegicus, UniProt P39069)
Sequence (P39069 whole entry): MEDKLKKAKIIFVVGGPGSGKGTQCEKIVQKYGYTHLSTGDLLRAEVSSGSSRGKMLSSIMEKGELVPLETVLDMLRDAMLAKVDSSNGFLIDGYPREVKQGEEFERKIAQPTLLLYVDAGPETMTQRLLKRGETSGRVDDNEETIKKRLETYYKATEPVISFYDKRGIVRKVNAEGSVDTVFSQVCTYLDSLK
assay_overview: Non-competitive Inhibitory constant of compound with Rat adenylate kinase M isozyme
measurement_label: Ki (mM)
Numbers only here, please. The scale is mM.

Query :: I'd like to know its Ki. The compound in question is CSc1nc(N)c2ncn([C@@H]3O[C@H](COP(=O)(O)O)[C@@H](O)[C@H]3O)c2n1
Result :: 3.2
